System: RARb homodimer (NR concentration 270 nM)
Assay: PBM binding z-score (relative to random genomic background probes); higher = stronger binding; sequences stand for … in GC…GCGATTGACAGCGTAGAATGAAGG
Output class 1 for PBM binding z-score not less than 3; output class 0 otherwise.

A selection of reference data follows.
# monomerSequence, groupLabel
measured = [
    ("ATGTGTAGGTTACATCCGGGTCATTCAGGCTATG", "class 1"),
    ("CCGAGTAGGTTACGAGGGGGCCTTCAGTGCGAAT", "class 0"),
    ("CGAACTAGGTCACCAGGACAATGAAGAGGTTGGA", "class 1"),
    ("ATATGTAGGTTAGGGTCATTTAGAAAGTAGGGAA", "class 1"),
    ("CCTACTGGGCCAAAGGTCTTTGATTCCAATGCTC", "class 0"),
]

Record `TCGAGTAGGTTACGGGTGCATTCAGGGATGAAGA` ; criterion: PBM binding z-score no lower than 3. Met? class 0

Record `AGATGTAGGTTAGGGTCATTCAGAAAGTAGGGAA` ; criterion: PBM binding z-score no lower than 3. Met? class 1

----------
System: PXR:RXRa (NR concentration 270 nM, RXRa partner concentration 90 nM)
Assay: PBM binding z-score (relative to random genomic background probes); higher = stronger binding; sequences stand for … in GC…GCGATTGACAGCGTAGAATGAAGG
propertyName: PBM binding z-score
Output: the number by itself.

Take a look at these entries with their results.
# monomerSequence, assayedTarget, PBM binding z-score
rows = [
    ("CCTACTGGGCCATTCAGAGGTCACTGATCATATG", "PXR:RXRa (NR concentration 270 nM, RXRa partner concentration 90 nM)", 3.96),
    ("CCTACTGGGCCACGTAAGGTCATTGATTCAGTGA", "PXR:RXRa (NR concentration 270 nM, RXRa partner concentration 90 nM)", 4.38),
    ("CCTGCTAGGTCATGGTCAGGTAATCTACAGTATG", "PXR:RXRa (NR concentration 270 nM, RXRa partner concentration 90 nM)", 1.78),
    ("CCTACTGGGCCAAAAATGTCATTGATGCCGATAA", "PXR:RXRa (NR concentration 270 nM, RXRa partner concentration 90 nM)", -0.383),
]

Briefly, PBM binding z-score measured for `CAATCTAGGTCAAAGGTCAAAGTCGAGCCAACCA` : 6.92

Briefly, PBM binding z-score measured for `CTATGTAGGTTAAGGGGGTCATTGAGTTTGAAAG` : 6.54

Briefly, PBM binding z-score measured for `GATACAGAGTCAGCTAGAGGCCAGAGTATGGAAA` : -0.537

Briefly, PBM binding z-score measured for `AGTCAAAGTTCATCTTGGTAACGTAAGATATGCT` : 4.92

Briefly, PBM binding z-score measured for `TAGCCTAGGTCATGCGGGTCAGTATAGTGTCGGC` : 3.67

Briefly, PBM binding z-score measured for `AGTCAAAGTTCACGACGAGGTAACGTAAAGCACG` : 5.24

Briefly, PBM binding z-score measured for `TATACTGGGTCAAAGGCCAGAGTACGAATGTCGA` : 2.33

Briefly, PBM binding z-score measured for `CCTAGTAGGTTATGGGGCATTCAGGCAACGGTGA` : 0.0613

Briefly, PBM binding z-score measured for `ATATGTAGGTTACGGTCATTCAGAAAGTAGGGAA` : 0.971

----------
Test system: PPARg:RXRa DBDmut IVT, anti-RXR (DBD mutation: RXRa K156A/R161A, NR concentration 270 nM, RXRa partner concentration 90 nM)
Experiment: PBM binding z-score (relative to random genomic background probes); higher = stronger binding; sequences stand for … in GC…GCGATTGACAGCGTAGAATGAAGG
propertyName: PBM binding z-score
Output: the number by itself.

Take a look at these entries with their results.
# monomerSequence, PBM binding z-score
data = [
    ("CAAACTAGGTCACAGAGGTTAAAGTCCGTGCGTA", 8.23),
    ("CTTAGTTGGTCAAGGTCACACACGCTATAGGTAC", 4),
    ("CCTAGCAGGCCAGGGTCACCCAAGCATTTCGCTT", -0.0206),
]

Briefly, PBM binding z-score measured for `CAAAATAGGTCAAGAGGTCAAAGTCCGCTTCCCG` : 7.42

Briefly, PBM binding z-score measured for `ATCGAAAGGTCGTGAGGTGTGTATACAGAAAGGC` : 0.0315

----------
System: PPARg:RXRa 30nM:10nM, anti-RXR (NR concentration 30 nM, RXRa partner concentration 10 nM)
Experiment: PBM binding z-score (relative to random genomic background probes); higher = stronger binding; sequences stand for … in GC…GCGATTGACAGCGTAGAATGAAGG
propertyName: PBM binding z-score
Output: the number by itself.

Take a look at these entries with their results.
# monomerSequence, assayedTarget, propertyName, recordedValue
data = [
    ("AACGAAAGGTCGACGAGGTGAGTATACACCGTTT", "PPARg:RXRa 30nM:10nM, anti-RXR (NR concentration 30 nM, RXRa partner concentration 10 nM)", "PBM binding z-score", 1.02),
    ("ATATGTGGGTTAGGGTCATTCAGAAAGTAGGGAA", "PPARg:RXRa 30nM:10nM, anti-RXR (NR concentration 30 nM, RXRa partner concentration 10 nM)", "PBM binding z-score", 3.82),
    ("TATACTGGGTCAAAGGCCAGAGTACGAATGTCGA", "PPARg:RXRa 30nM:10nM, anti-RXR (NR concentration 30 nM, RXRa partner concentration 10 nM)", "PBM binding z-score", 8.63),
    ("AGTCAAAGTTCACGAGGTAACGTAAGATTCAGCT", "PPARg:RXRa 30nM:10nM, anti-RXR (NR concentration 30 nM, RXRa partner concentration 10 nM)", "PBM binding z-score", 4.79),
    ("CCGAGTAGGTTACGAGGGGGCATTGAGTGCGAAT", "PPARg:RXRa 30nM:10nM, anti-RXR (NR concentration 30 nM, RXRa partner concentration 10 nM)", "PBM binding z-score", 1.03),
    ("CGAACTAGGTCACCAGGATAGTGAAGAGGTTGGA", "PPARg:RXRa 30nM:10nM, anti-RXR (NR concentration 30 nM, RXRa partner concentration 10 nM)", "PBM binding z-score", 4.74),
]

Briefly, PBM binding z-score measured for `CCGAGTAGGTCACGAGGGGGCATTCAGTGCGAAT` : 4.32

Briefly, PBM binding z-score measured for `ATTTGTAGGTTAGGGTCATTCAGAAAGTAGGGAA` : 3.41

----------
Tested on: LXRa homodimer (NR concentration 270 nM)
Test: PBM binding z-score (relative to random genomic background probes); higher = stronger binding; sequences stand for … in GC…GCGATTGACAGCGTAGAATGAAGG
Catalogue of PBM binding z-score readings, one per entry.
Output: the number by itself.

Take a look at these entries with their results.
# monomerSequence, PBM binding z-score
data = [
    ("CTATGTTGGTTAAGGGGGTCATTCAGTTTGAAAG", 3.82),
    ("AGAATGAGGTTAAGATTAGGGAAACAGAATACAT", 0.0443),
]

In the following, a different sequence is considered.
Briefly, PBM binding z-score measured for `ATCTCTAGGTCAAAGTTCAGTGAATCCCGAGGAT` : 6.95

----------
Catalogue of PBM binding z-score readings, one per entry.
Test system: PPARg homodimer (NR concentration 180 nM)
Test: PBM binding z-score (relative to random genomic background probes); higher = stronger binding; sequences stand for … in GC…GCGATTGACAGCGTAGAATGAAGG

# monomerSequence, PBM binding z-score
rows = [
    ("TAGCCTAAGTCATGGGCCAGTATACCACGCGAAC", -0.397),
]

Briefly, PBM binding z-score measured for `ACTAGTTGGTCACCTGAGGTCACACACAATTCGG` : 4.91

Briefly, PBM binding z-score measured for `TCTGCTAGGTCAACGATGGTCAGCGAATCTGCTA` : 0.458

----------
Tested on: THRa:RXRa (NR concentration 90 nM, RXRa partner concentration 90 nM)
Test: PBM binding z-score (relative to random genomic background probes); higher = stronger binding; sequences stand for … in GC…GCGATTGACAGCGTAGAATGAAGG
Catalogue of PBM binding z-score readings, one per entry.
Output: the number by itself.

Briefly, PBM binding z-score measured for `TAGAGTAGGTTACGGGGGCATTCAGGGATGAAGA` : 3.99

Briefly, PBM binding z-score measured for `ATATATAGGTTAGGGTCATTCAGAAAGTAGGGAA` : 4.11

Briefly, PBM binding z-score measured for `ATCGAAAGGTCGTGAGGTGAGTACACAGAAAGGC` : 3.39

Briefly, PBM binding z-score measured for `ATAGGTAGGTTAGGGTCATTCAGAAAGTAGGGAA` : 4.76

Briefly, PBM binding z-score measured for `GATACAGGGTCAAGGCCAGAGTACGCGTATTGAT` : 3.52

Briefly, PBM binding z-score measured for `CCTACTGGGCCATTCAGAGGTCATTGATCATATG` : 3.14

Briefly, PBM binding z-score measured for `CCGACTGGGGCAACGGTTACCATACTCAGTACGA` : -0.149

Briefly, PBM binding z-score measured for `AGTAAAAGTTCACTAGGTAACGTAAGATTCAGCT` : 1.8

Briefly, PBM binding z-score measured for `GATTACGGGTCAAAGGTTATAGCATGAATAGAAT` : 3.95

Briefly, PBM binding z-score measured for `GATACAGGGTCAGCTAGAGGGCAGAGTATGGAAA` : 3.18

Briefly, PBM binding z-score measured for `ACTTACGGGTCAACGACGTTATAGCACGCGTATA` : 2.68

Briefly, PBM binding z-score measured for `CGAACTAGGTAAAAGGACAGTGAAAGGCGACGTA` : 0.444

Briefly, PBM binding z-score measured for `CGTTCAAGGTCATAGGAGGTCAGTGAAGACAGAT` : 5.23

Briefly, PBM binding z-score measured for `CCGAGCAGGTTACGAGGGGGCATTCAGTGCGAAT` : 3.81

Briefly, PBM binding z-score measured for `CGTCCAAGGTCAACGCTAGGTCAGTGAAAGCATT` : 4.61
